test: Drug level in C57Bl6 mouse plasma at 100 mg/kg, po after 2 hrs by HPLC analysis; format: ADME, organism-based; set-up: dose 100 mg/kg, route oral
Measured Quantity: concentration at 2 h

Smiles Representation	Recorded Measurement
CC(C)C(=O)c1cn(CC(=O)COc2ccc(Oc3ccccc3)cc2)c2ccc(C(=O)O)cc12	< 1000 ng/mL
CCCCCCCCc1ccc(OCC(=O)Cn2cc(C(=O)CCCCC(=O)O)c3cc(C(=O)O)ccc32)cc1	< 200 ng/mL

* * *

assay: Drug level in C57Bl6 mouse plasma at 10 mg/kg, po after 2 hrs by HPLC analysis; assay type: ADME, organism-based; parameters: dose 10 mg/kg, route oral
Measured Quantity: concentration at 2 h (ng/mL)

Smiles Representation	Recorded Measurement
COc1ccc2c(c1)c(CC(=O)O)c(C)n2C(=O)c1ccc(Cl)cc1	34000

* * *

experiment: Partition coefficient, log P of the compound by reverse phase HPLC analysis; assay type: physicochemical; conditions: octanol/water

Smiles Representation	Qualifier Symbol	logP
CCCCCCCCc1ccc(OCC(=O)Cn2cc(CCCC)c3cc(C(=O)O)ccc32)cc1	>	7
CCCCCCCCc1ccc(OCC(=O)Cn2cc(-c3nc(C)no3)c3cc(C(=O)O)ccc32)cc1	=	6.3
CCCCCCCCc1ccc(OCC(=O)Cn2cc(C(=O)CCCC(=O)O)c3cc(C(=O)O)ccc32)cc1	=	5.2
CCCCCCCCc1ccc(OCC(=O)Cn2cc(C(=O)CCC(=O)O)c3cc(C(=O)O)ccc32)cc1	=	5.1
CCCCCCCCc1ccc(OCC(=O)Cn2cc(C(=O)c3ccccc3)c3cc(C(=O)O)ccc32)cc1	=	6.9
O=C(O)CCCCC(=O)c1cn(CC(=O)COc2ccc(Oc3ccccc3)cc2)c2ccc(C(=O)O)cc12	=	2.1
CCCCCCCCc1ccc(OCC(=O)Cn2cc(C(=O)c3ccc(C(=O)O)cc3)c3cc(C(=O)O)ccc32)cc1	=	5.6
CCCCCCCCc1ccc(OCC(=O)Cn2cc(C(=O)C(F)(F)F)c3cc(C(=O)O)ccc32)cc1	>	7
CCCCCCCCc1ccc(OCC(=O)Cn2cc(C(=O)CCCCC(=O)O)c3cc(C(=O)O)ccc32)cc1	=	5.3

* * *

assay: Drug level in C57Bl6 mouse plasma at 100 mg/kg, po after 1 hr by HPLC analysis; format: ADME, organism-based; parameters: dose 100 mg/kg, route oral
Entries and their concentration at 1 h values follow.
Measured Quantity: concentration at 1 h

Smiles Representation	Recorded Measurement
CCCCCCCCc1ccc(OCC(=O)Cn2cc(C(=O)CCCCC(=O)O)c3cc(C(=O)O)ccc32)cc1	< 200 ng/mL
CC(C)C(=O)c1cn(CC(=O)COc2ccc(Oc3ccccc3)cc2)c2ccc(C(=O)O)cc12	< 5000 ng/mL

* * *

experiment: Metabolic stability in rat liver microsomes assessed as compound remaining after 30 mins by UV-reverse phase HPLC analysis; type: ADME, Microsome; conditions: read-out: Stability
With a cut-off of 80%, any remaining at 0.5 h strictly below it is called Satisfied; any remaining at 0.5 h meeting it or above is called Not satisfied.

Smiles Representation	Group Label
CCCCCCCCc1ccc(OCC(=O)Cn2cc(C(=O)CCCC(=O)O)c3cc(C(=O)O)ccc32)cc1	Not satisfied
CCCCCCCCc1ccc(OCC(=O)Cn2cc(CC)c3cc(C(=O)O)ccc32)cc1	Not satisfied
CCCCCCCCc1ccc(OCC(=O)Cn2cc(C(=O)C(F)(F)F)c3cc(C(=O)O)ccc32)cc1	Not satisfied
CCCCCCCCc1ccc(OCC(=O)Cn2cc(C(=O)c3cccc(C(=O)O)c3)c3cc(C(=O)O)ccc32)cc1	Not satisfied
CCCCCCCCc1ccc(OCC(=O)Cn2cc(CCCCCC)c3cc(C(=O)O)ccc32)cc1	Not satisfied
CCCCCCCCc1ccc(OCC(=O)Cn2cc(C(=O)c3ccc(C(=O)O)cc3)c3cc(C(=O)O)ccc32)cc1	Not satisfied
CCCCCCCCc1ccc(OCC(=O)Cn2cc(C(=O)c3ccccc3)c3cc(C(=O)O)ccc32)cc1	Not satisfied
Cc1noc(-c2cn(CC(=O)COc3ccc(Oc4ccccc4)cc3)c3ccc(C(=O)O)cc23)n1	Satisfied
CCCCCCCCc1ccc(OCC(=O)Cn2cc(C(=O)C(C)(C)C)c3cc(C(=O)O)ccc32)cc1	Not satisfied
O=C(O)CCCCC(=O)c1cn(CC(=O)COc2ccc(Oc3ccccc3)cc2)c2ccc(C(=O)O)cc12	Satisfied

* * *

assay: Drug level in C57Bl6 mouse bile at 100 mg/kg, po after 2 hrs by HPLC analysis; type: ADME, organism-based; design: dose 100 mg/kg, route oral; conditions: read-out: Drug uptake
Measured Quantity: concentration at 2 h (ng/mL)

Smiles Representation	Readout Unit	Recorded Measurement
CCCCCCCCc1ccc(OCC(=O)Cn2cc(C(=O)CCCCC(=O)O)c3cc(C(=O)O)ccc32)cc1	ng/mL	6000

* * *

assay: Drug level in rat plasma at 100 mg/kg, po after 4 hrs by HPLC analysis; type: ADME, organism-based; design: dose 100 mg/kg, route oral

Smiles Representation	concentration at 4 h, µg/mL
CCCCCCCCCCCC(=O)c1c(C(=O)O)n(CCOc2ccc(CC(=O)O)cc2)c2ccccc12	100

* * *

assay: Partition coefficient, log P of the compound by reverse phase HPLC analysis; assay type: physicochemical; details: octanol/water

Smiles Representation	Qualifier Symbol	logP
CCCCCCCCc1ccc(OCC(=O)Cn2cc(C(=O)CCC)c3cc(C(=O)O)ccc32)cc1	=	6.7
CCCCCCCCc1ccc(OCC(=O)Cn2cc(C(=O)CCCCC)c3cc(C(=O)O)ccc32)cc1	>	7
CCCCCCCCc1ccc(OCC(=O)Cn2cc(C(=O)c3cccc(C(=O)O)c3)c3cc(C(=O)O)ccc32)cc1	=	5.7
CCCCCCCCc1ccc(OCC(=O)Cn2cc(CCCCCC)c3cc(C(=O)O)ccc32)cc1	>	7
CCCCCCCCc1ccc(OCC(=O)Cn2cc(CC)c3cc(C(=O)O)ccc32)cc1	>	7
CCCCCCCCc1ccc(OCC(=O)Cn2cc(C(=O)C(C)(C)C)c3cc(C(=O)O)ccc32)cc1	>	7
Cc1noc(-c2cn(CC(=O)COc3ccc(Oc4ccccc4)cc3)c3ccc(C(=O)O)cc23)n1	=	3.1

Reference for the values: ChEMBL document CHEMBL1799943
